Cited source for all entries: ChEMBL document CHEMBL1124010

The following are reported IC50 results, target or system D(2) dopamine receptor (Rattus norvegicus, UniProt P61169).
Answers are plain numbers, in nM.

molecule	assay-value
CCCN1CCO[C@@H]2c3cc(O)ccc3CC[C@H]21 [NAXAGOLIDE]	3

Batch request: IC50 per item, same order as input.
1. CCCN1CCO[C@@H]2c3cccc(O)c3CC[C@H]21
2. CCCN(CCC)C1COc2c(O)cccc2C1 (stereo not given)
3. CCCN1CCO[C@@H]2c3cccc(O)c3OC[C@H]21
4. CCCN1CCO[C@@H]2c3cc(O)ccc3OC[C@H]21

Key:
1. 75
2. 4
3. 2920
4. 3070
